- Tested on: Coprococcus comes
- Protocol: growth AUC relative to DMSO control (median of replicates) (fraction); higher = more growth (less inhibition), active = hit call of the paper
- Conditions used: 20 µM; 24 h
# reported growth AUC; entries follow

>  <Compound>
CNC(=O)O/N=C/C(C)(C)S(C)=O (stereo unspecified)

>  <Reported value>
0.987 (inactive)

$$$$
>  <Compound>
CN(C)C(=S)[S-].CN(C)C(=S)[S-].[Zn+2]

>  <Reported value>
0.834 (inactive)

$$$$
>  <Compound>
N#Cc1cc(I)c(O)c(I)c1

>  <Reported value>
1.02 (inactive)

$$$$

# query: growth AUC of entry CC1(C)C(C=C(Cl)Cl)[C@@H]1C(=O)O[C@@H](C#N)c1ccc(F)c(Oc2ccccc2)c1 (stereo partly specified)
0.984 (inactive)

What value of measured growth AUC is listed for "CC(C)OC(=O)C(O)(c1ccc(Br)cc1)c1ccc(Br)cc1" ?
0.905 (inactive)

Suppose we examine the compound "CP(=O)(O)CC(=O)O" ; what growth AUC value has been reported?
0.991 (inactive)

---

- Test system: Escherichia coli IAI1
- Protocol: growth AUC relative to DMSO control (median of replicates) (fraction); higher = more growth (less inhibition), active = hit call of the paper
- Conditions used: 20 µM; 24 h
Short version: growth AUC at least 1 is 1, less is -1.

Answered examples (3):
>  <Compound>
CCOP(=S)(OCC)Oc1ccc(=O)n(-c2ccccc2)n1

>  <Assigned category>
-1

$$$$
>  <Compound>
O=c1oc2ccccc2c(O)c1C1CCCc2ccccc21 (stereo unspecified)

>  <Assigned category>
1

$$$$
>  <Compound>
O=C(Nc1ccccc1)Nc1ccnc(Cl)c1

>  <Assigned category>
-1

$$$$

Could you please find out whether "COC(=O)/C(C)=C/OP(=S)(OC)OC" has growth AUC that meets 1 or exceeds it?
-1

---

- Tested on: Bacteroides clarus
- Protocol: growth AUC relative to DMSO control (median of replicates) (fraction); higher = more growth (less inhibition), active = hit call of the paper
- Conditions used: 20 µM; 24 h
Measurement name: growth AUC
Answer using only a numeral; do not append any unit.

Known growth AUC results, listed for orientation:
>  <Compound>
CCNc1nc(NC(C)C(C)C)nc(SC)n1 (stereo unspecified)

>  <growth AUC>
0.962

$$$$
>  <Compound>
CCNc1nc(Cl)nc(NC(C)C)n1

>  <growth AUC>
1.01

$$$$
>  <Compound>
ClC1(Cl)C2(Cl)C3(Cl)C4(Cl)C(Cl)(Cl)C5(Cl)C3(Cl)C1(Cl)C5(Cl)C24Cl (stereo unspecified)

>  <growth AUC>
0.972

$$$$
>  <Compound>
CC(C)(C)N(NC(=O)c1ccc(Cl)cc1)C(=O)c1ccccc1

>  <growth AUC>
0.986

$$$$
>  <Compound>
COP(=O)(OC)C(O)C(Cl)(Cl)Cl (stereo unspecified)

>  <growth AUC>
1.01

$$$$
>  <Compound>
O=C(O)c1ccccc1C(=O)Nc1cccc2ccccc12

>  <growth AUC>
1.02

$$$$

Item under review: "CN1COCN(Cc2cnc(Cl)s2)/C1=N/[N+](=O)[O-]" . Reported growth AUC?
0.976

For the compound "CCCCOC(=O)[C@@H](C)Oc1ccc(Oc2ccc(C#N)cc2F)cc1" , what growth AUC is on record?
1

May I ask what growth AUC has been recorded for "CC(C)N(C(=O)COc1nnc(C(F)(F)F)s1)c1ccc(F)cc1" ?
1.02

Returns the measured growth AUC for the input compound. Input: "CCOP(=S)(OCC)SCSc1ccc(Cl)cc1"
0.972

Recorded growth AUC of CC(C)(C)C(O)C(Cc1ccc(Cl)cc1Cl)n1cncn1 (mixture of isomers) , please.
0.969
